biological target: HLA-A*30:01; assay: IEDB peptide-MHC binding, purified MHC/direct/fluorescence; filed as Kd, often an IC50 or EC50 that approximates it; bounds were set here for any values at or beyond the usual limits of such assays; settings: source organism: Vibrio parahaemolyticus RIMD 2210633
readout: Kd

**Query** Returns the measured Kd for the input sequence. Input: "DTWHGFKNM"
**Result** ≥ 20 µM

----------
molecular target: HLA-B*18:01; assay: IEDB peptide-MHC binding, purified MHC/competitive/radioactivity; filed as Kd, often an IC50 or EC50 that approximates it; bounds were set here for any values at or beyond the usual limits of such assays; details: source organism: Lassa virus Josiah
readout: Kd

**Query** I'd like to know its Kd. The sequence in question is "REPTDLKQF"
**Result** ≥ 55.4 µM

----------
target: HLA-A*01:01; assay: IEDB peptide-MHC binding, purified MHC/direct/fluorescence; filed as Kd, often an IC50 or EC50 that approximates it; bounds were set here for any values at or beyond the usual limits of such assays; conditions: source organism: Pasteurella multocida
readout: Kd

**Query** Looking for the measured Kd of "LLKDLMPFV" , can you help?
**Result** ≥ 20 µM

----------
target: HLA-B*45:01; experiment: IEDB peptide-MHC binding, purified MHC/competitive/radioactivity; filed as Kd, often an IC50 or EC50 that approximates it; bounds were set here for any values at or beyond the usual limits of such assays; details: source organism: Mammarenavirus brazilense
readout: pKd
Give bare numbers, as −log10 of the molar value.

**Query** Given the sequence "YEQQTVNST" , what is its reported pKd?
**Result** 5.92

----------
target: HLA-A*33:01; assay: IEDB peptide-MHC binding, purified MHC/competitive/radioactivity; filed as Kd, often an IC50 or EC50 that approximates it; bounds were set here for any values at or beyond the usual limits of such assays; details: source organism: Lymphocytic choriomeningitis virus (strain Armstrong)
Would you mind telling me the reported Kd of each entry?

{"sequence.input": "RCHDHYLCR", "readout": "Kd", "data.value": "≥ 35.6 µM"}

**Query** # input sequence: "DKYGWLCKMH" ; wanted: its Kd
**Result** ≥ 70 µM

----------
target: HLA-B*15:09; experiment: IEDB peptide-MHC binding, purified MHC/competitive/fluorescence; filed as Kd, often an IC50 or EC50 that approximates it; bounds were set here for any values at or beyond the usual limits of such assays; conditions: source organism: Vibrio cholerae O1 biovar El Tor str. N16961
readout: Kd

**Query** Dear colleague, I am looking for the recorded Kd of the following sequence: "YLKKGRLSL"
**Result** ≥ 20 µM

----------
target: HLA-A*31:01; assay: IEDB peptide-MHC binding, purified MHC/competitive/fluorescence; filed as Kd, often an IC50 or EC50 that approximates it; bounds were set here for any values at or beyond the usual limits of such assays; details: source organism: Mycobacterium tuberculosis H37Rv
readout: pKd
Give bare numbers, as −log10 of the molar value.

**Query** So what's the measured pKd for this one? "YLHYYRIIR"
**Result** 6.61

----------
biological target: HLA-A*11:01; assay: IEDB peptide-MHC binding, purified MHC/direct/fluorescence; filed as Kd, often an IC50 or EC50 that approximates it; bounds were set here for any values at or beyond the usual limits of such assays; details: source organism: Ectopseudomonas mendocina
readout: Kd

**Query** Request - read-out Kd | tested on HLA-A*11:01 | sequence "FSDARLAKL"
**Result** ≥ 20 µM

----------
molecular target: HLA-B*15:01; experiment: IEDB peptide-MHC binding, purified MHC/competitive/fluorescence; filed as Kd, often an IC50 or EC50 that approximates it; bounds were set here for any values at or beyond the usual limits of such assays; conditions: source organism: Encephalitozoon cuniculi GB-M1
readout: pKd
Answers are plain numbers, as −log10 of the molar value.

**Query** Consider the sequence "ILRQNMIAL" and give its measured pKd.
**Result** 6.73

----------
biological target: HLA-A*32:01; assay: IEDB peptide-MHC binding, purified MHC/competitive/radioactivity; filed as Kd, often an IC50 or EC50 that approximates it; bounds were set here for any values at or beyond the usual limits of such assays; settings: source organism: Mammarenavirus brazilense
readout: Kd

**Query** So what does the record say about Kd for "EALRGFLLY" ?
**Result** ≥ 60.2 µM

----------
molecular target: HLA-A*01:01; experiment: IEDB peptide-MHC binding, purified MHC/competitive/radioactivity; filed as Kd, often an IC50 or EC50 that approximates it; bounds were set here for any values at or beyond the usual limits of such assays; details: source organism: SARS coronavirus Tor2
readout: pKd
Answers are plain numbers, as −log10 of the molar value.

Sample records with pKd:
{"sequence.input": "WFSQRGGSY", "readout": "pKd", "data.value": 6.74}
{"sequence.input": "PFWITAIYVF", "readout": "pKd", "data.value": 6.39}
{"sequence.input": "SSPDAVTTY", "readout": "pKd", "data.value": 5.26}
{"sequence.input": "LYLYALIYF", "readout": "pKd", "data.value": 5.29}
{"sequence.input": "IDETCEHEY", "readout": "pKd", "data.value": 4.96}
{"sequence.input": "AYSFLPGVY", "readout": "pKd", "data.value": 5.19}
{"sequence.input": "VSSPDAVTTY", "readout": "pKd", "data.value": 6.65}
{"sequence.input": "NVSLVKPTVY", "readout": "pKd", "data.value": 4.91}

Now, please, on to the next sequence.
**Query** Need pKd of "AFRDVLVVL" , thanks.
**Result** 4.80

----------
target: HLA-B*44:03; assay: IEDB peptide-MHC binding, purified MHC/competitive/radioactivity; filed as Kd, often an IC50 or EC50 that approximates it; bounds were set here for any values at or beyond the usual limits of such assays; details: source organism: Lymphocytic choriomeningitis virus (strain WE)
readout: Kd

**Query** If you can, please state the reported Kd value of "KEPVESCPLM" .
**Result** ≥ 40.8 µM

----------
target: HLA-A*02:16; assay: IEDB peptide-MHC binding, purified MHC/competitive/fluorescence; filed as Kd, often an IC50 or EC50 that approximates it; bounds were set here for any values at or beyond the usual limits of such assays; conditions: source organism: Vibrio vulnificus CMCP6
readout: Kd (nM)
Numbers only, in nM.

**Query** Using the record for "FGAQMGWPV" , report its Kd.
**Result** 6.2

----------
target: HLA-B*35:01; assay: IEDB peptide-MHC binding, purified MHC/competitive/radioactivity; filed as Kd, often an IC50 or EC50 that approximates it; bounds were set here for any values at or beyond the usual limits of such assays; settings: source organism: Dengue virus 1 Brazil/97-11/1997
readout: Kd

**Query** Form field: reported Kd of "MLMTGTLAVF"
**Result** 342 nM

----------
biological target: HLA-A*02:01; experiment: IEDB peptide-MHC binding, purified MHC/competitive/radioactivity; filed as Kd, often an IC50 or EC50 that approximates it; bounds were set here for any values at or beyond the usual limits of such assays; conditions: source organism: Trypanosoma cruzi
readout: pKd
Answers are plain numbers, as −log10 of the molar value.

**Query** What does the data say about its pKd? Entry: "FANYGFTLA"
**Result** 5.82

----------
molecular target: HLA-A*02:03; assay: IEDB peptide-MHC binding, purified MHC/competitive/radioactivity; filed as Kd, often an IC50 or EC50 that approximates it; bounds were set here for any values at or beyond the usual limits of such assays; details: source organism: Mammarenavirus caliense
readout: Kd (µM)
Give bare numbers, in µM.

**Query** I am curious: what Kd value has been reported for "YNLSLSAAV" ?
**Result** 1.14

----------
molecular target: HLA-A*03:01; test: IEDB peptide-MHC binding, purified MHC/competitive/fluorescence; filed as Kd, often an IC50 or EC50 that approximates it; bounds were set here for any values at or beyond the usual limits of such assays; conditions: source organism: Vaccinia virus WR
readout: Kd

**Query** Consider the sequence shown here: "LSDLKKTIY" What is its recorded Kd?
**Result** ≥ 20 µM

----------
target: HLA-B*27:05; assay: IEDB peptide-MHC binding, purified MHC/direct/fluorescence; filed as Kd, often an IC50 or EC50 that approximates it; bounds were set here for any values at or beyond the usual limits of such assays; settings: source organism: Mycobacterium avium 104
pKd: −log10 of the molar value.
readout: pKd

**Query** May I ask what pKd has been recorded for "EHVQGDIDL" ?
**Result** ≤ 4.70

----------
biological target: HLA-A*26:01; experiment: IEDB peptide-MHC binding, purified MHC/competitive/fluorescence; filed as Kd, often an IC50 or EC50 that approximates it; bounds were set here for any values at or beyond the usual limits of such assays; details: source organism: Four Corners hantavirus
readout: Kd

**Query** If you can, please state the reported Kd value of "KSAFYQSYL" .
**Result** ≥ 20 µM

Values from the Immune Epitope Database (IEDB)
